target: furin, P09958; assay: furin cleavage Z-score vs untreated control; higher = more cleavage, active = 3.5 or more, inactive = 1 or less, 8 variable residues between constant flanks; conditions: 7.5 min;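 further: purified furin at 1:10 enzyme:substrate in 50 mM HEPES pH 7.5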
Sequence (P09958 whole entry): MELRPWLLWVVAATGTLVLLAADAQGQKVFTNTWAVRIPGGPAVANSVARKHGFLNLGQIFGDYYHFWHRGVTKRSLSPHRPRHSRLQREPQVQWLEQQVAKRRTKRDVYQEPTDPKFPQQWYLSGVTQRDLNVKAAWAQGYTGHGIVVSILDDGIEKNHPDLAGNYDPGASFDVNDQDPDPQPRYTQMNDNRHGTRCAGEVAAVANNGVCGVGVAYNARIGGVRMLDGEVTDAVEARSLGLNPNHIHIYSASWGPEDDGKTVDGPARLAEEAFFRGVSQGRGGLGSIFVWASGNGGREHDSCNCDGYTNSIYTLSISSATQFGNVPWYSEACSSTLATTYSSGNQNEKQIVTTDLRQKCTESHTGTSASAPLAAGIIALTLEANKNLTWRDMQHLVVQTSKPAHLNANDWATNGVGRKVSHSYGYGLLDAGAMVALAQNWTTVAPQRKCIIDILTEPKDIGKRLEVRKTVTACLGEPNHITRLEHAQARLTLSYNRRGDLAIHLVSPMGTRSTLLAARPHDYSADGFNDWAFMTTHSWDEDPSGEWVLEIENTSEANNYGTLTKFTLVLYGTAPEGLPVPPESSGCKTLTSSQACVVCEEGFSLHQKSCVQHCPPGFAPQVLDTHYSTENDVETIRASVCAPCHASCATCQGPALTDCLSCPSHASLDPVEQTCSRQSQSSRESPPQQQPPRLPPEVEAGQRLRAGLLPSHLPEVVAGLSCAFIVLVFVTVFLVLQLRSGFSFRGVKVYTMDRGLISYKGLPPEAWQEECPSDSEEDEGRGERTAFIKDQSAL
The other results are listed elsewhere or left out. The hit rate among all sequences tested is not known here.
# if value of furin cleavage Z-score reaches 0.4, tag met; if it stays below, tag not met

Use the examples below as a reference point.
• CASLLKVPYFAGNASASA [HC613] = not met
• CARTKRFLSYAGNASASA [FS-2826] = met
• CARTKRFVSEAGNASASA [FS-3106] = met

Evaluate CARTKRKPSIAGNASASA [FS-2612] : furin cleavage Z-score at minimum 0.4?
not met

Please check the record CARGARLVSEAGNASASA [FS-1708] and state if its furin cleavage Z-score is at or above 0.4.
not met

Hi team, for CARPWKSVSEAGNASASA [FS-2060] , is the recorded furin cleavage Z-score at or above 0.4?
not met

Please indicate if the recorded furin cleavage Z-score for CARNQRDAWIAGNASASA [FS-2731] meets or exceeds 0.4.
not met
